testDetails: Evaluation of maximum absorption wavelength (absorption spectrum in tetrahydrofuran solution)
Assay type: physicochemical
condition: 1×10^−6 mol/L, optical path length 10 mm (Table 9)
testReadout: Molar light absorption coefficient (L/mol/cm)
Write the number in L/mol/cm without appending the unit.

compound	endpointResult
CCCC1(C)Nc2cccc3ccc(N=Nc4ccc(N=Nc5ccccc5Cl)c5ccccc45)c(c23)N1 (centres unmarked)	36200

Query string: Name the recorded Molar light absorption coefficient of the compound listed here: CC(C)C1(C)Nc2cccc3ccc(N=Nc4ccc(N=Nc5ccccc5Cl)c5ccccc45)c(c23)N1 (centres unmarked)
Result string: 35500

Query string: Give the value of Molar light absorption coefficient reported for the following: CCCCC1(C)Nc2cccc3ccc(N=Nc4ccc(N=Nc5ccccc5Cl)c5ccccc45)c(c23)N1 (centres unmarked)
Result string: 35800

Query string: Determine from records and report Molar light absorption coefficient for CC1(C)Nc2cccc3ccc(N=Nc4ccc(N=Nc5ccccc5[N+](=O)[O-])c5ccccc45)c(c23)N1
Result string: 32100

Query string: Tell me measured Molar light absorption coefficient for CC1(C)Nc2cccc3ccc(N=Nc4ccc(N=Nc5ccccc5Cl)c5ccccc45)c(c23)N1 please.
Result string: 36300

###

testDetails: Evaluation of maximum absorption wavelength (absorption spectrum in tetrahydrofuran solution)
Assay type: physicochemical
condition: 1×10^−6 mol/L, optical path length 10 mm (Table 7)
testReadout: Molar light absorption coefficient

// known answers, use as guide
compound	Molar light absorption coefficient
CCCCCC1(C)Nc2cccc3c(N=Nc4ccc(N=Nc5ccccc5C(C)=O)c5ccccc45)ccc(c23)N1 (stereo not drawn)	34,900 L · mol^−1 · cm^−1
CC1(Cc2ccccc2)Nc2cccc3c(N=Nc4ccc(N=Nc5ccccc5Cl)c5ccccc45)ccc(c23)N1 (stereo not drawn)	36,800 L · mol^−1 · cm^−1
CC(=O)c1ccccc1N=Nc1ccc(N=Nc2ccc3c4c(cccc24)NC(C)(C)N3)c2ccccc12	34,100 L · mol^−1 · cm^−1
CC1(C)Nc2cccc3c(N=Nc4ccc(N=Nc5ccccc5Cl)c5ccccc45)ccc(c23)N1	34,500 L · mol^−1 · cm^−1
CC(C)C1(C)Nc2cccc3c(N=Nc4ccc(N=Nc5ccccc5Cl)c5ccccc45)ccc(c23)N1 (stereo not drawn)	33,000 L · mol^−1 · cm^−1

Query string: Return Molar light absorption coefficient for the following compound: CCCCC1(C)Nc2cccc3c(N=Nc4ccc(N=Nc5ccccc5Cl)c5ccccc45)ccc(c23)N1 (stereo not drawn)
Result string: 35,100 L · mol^−1 · cm^−1

Query string: Answer with the recorded Molar light absorption coefficient for the compound listed here: CC1(CO)Nc2cccc3c(N=Nc4ccc(N=Nc5ccccc5Cl)c5ccccc45)ccc(c23)N1 (stereo not drawn)
Result string: 33,100 L · mol^−1 · cm^−1

Query string: Give the value of Molar light absorption coefficient reported for the following: CCCCCC1(C)Nc2cccc3c(N=Nc4ccc(N=Nc5ccccc5Cl)c5ccccc45)ccc(c23)N1 (stereo not drawn)
Result string: 35,900 L · mol^−1 · cm^−1

Query string: Provide measured Molar light absorption coefficient value, entry: COC(=O)c1ccccc1N=Nc1ccc(N=Nc2ccc3c4c(cccc24)NC(C)(C)N3)c2ccccc12
Result string: 26,600 L · mol^−1 · cm^−1

Query string: Entry CCCC1(C)Nc2cccc3c(N=Nc4ccc(N=Nc5ccccc5Cl)c5ccccc45)ccc(c23)N1 (stereo not drawn) needs its Molar light absorption coefficient filled in; supply it.
Result string: 34,400 L · mol^−1 · cm^−1

Query string: Identify Molar light absorption coefficient associated with the compound CC1(CC(N)=O)Nc2cccc3c(N=Nc4ccc(N=Nc5ccccc5Cl)c5ccccc45)ccc(c23)N1 (stereo not drawn)
Result string: 34,200 L · mol^−1 · cm^−1

Query string: Respond only with Molar light absorption coefficient recorded for CCC1(C)Nc2cccc3c(N=Nc4ccc(N=Nc5ccccc5Cl)c5ccccc45)ccc(c23)N1 (stereo not drawn)
Result string: 34,000 L · mol^−1 · cm^−1

Query string: Using known records, supply Molar light absorption coefficient for CC(C)(C)C1(C)Nc2cccc3c(N=Nc4ccc(N=Nc5ccccc5Cl)c5ccccc45)ccc(c23)N1 (stereo not drawn)
Result string: 35,200 L · mol^−1 · cm^−1

Query string: Please give measured Molar light absorption coefficient of the following entry: CC1(C)Nc2cccc3c(N=Nc4ccc(N=Nc5ccccc5Br)c5ccccc45)ccc(c23)N1
Result string: 32,800 L · mol^−1 · cm^−1
